Listed next: entries and their corresponding solubility at 24 h.
Assay: Aqueous solubility by gravimetric method
Format: physicochemical
Details: thermodynamic from solid; ultrapure water, room temperature, shaken 24 h, n = 6; read-out: Experimental solubility in water at room temperature (average ± SD)
Reply with just the number (in µg/mL).

Check out these entries, answers already filled in.
CC(=O)OC[C@@]1(C)C2CC[C@]3(C)C(CC=C4[C@@H]5[C@@H](C)[C@H](C)CC[C@]5(C(=O)NCCCN(C)C)CC[C@]43C)[C@@]2(C)C[C@@H](OC(C)=O)[C@@H]1OC(C)=O (some centres unmarked) :: 164
C[C@H]1[C@H](C)CC[C@]2(C(=O)O)CC[C@]3(C)C(=CC[C@@H]4[C@@]5(C)C[C@@H](O)[C@H](O)[C@@](C)(CO)[C@@H]5CC[C@]43C)[C@H]12 :: 541
C[C@H]1[C@H](C)CC[C@]2(C(=O)NCCCN(C)C)CC[C@]3(C)C(=CCC4[C@@]5(C)C[C@@H](O)[C@H](O)[C@@](C)(CO)C5CC[C@]43C)[C@H]12 (some centres unmarked) :: 810

solubility at 24 h in this record for CCCCOC(=O)C12CCC(C)C(C)C1C1=CCC3C4(C)CC(OC(C)=O)C(OC(C)=O)C(C)(COC(C)=O)C4CCC3(C)C1(C)CC2 (centres unmarked) : 10

solubility at 24 h in this record for CC(=O)OCC1(C)C(OC(C)=O)C(OC(C)=O)CC2(C)C1CCC1(C)C2CC=C2C3C(C)C(C)CCC3(C(=O)O)CCC21C (centres unmarked) : 272

* * *

Assay: Aqueous solubility by gravimetric method
Assay type: physicochemical
Details: thermodynamic from solid; ultrapure water, 37 °C, shaken 24 h, n = 6; read-out: Experimental solubility in water at 37 °C (average ± SD)
Listed next: entries and their corresponding solubility at 24 h.
Reply with just the number (in µg/mL).

Check out these entries, answers already filled in.
C[C@H]1[C@H](C)CC[C@]2(C(=O)O)CC[C@]3(C)C(=CC[C@@H]4[C@@]5(C)C[C@@H](O)[C@H](O)[C@@](C)(CO)[C@@H]5CC[C@]43C)[C@H]12 [AA, Asiatic acid] :: 723
CC(=O)OCC1(C)C(OC(C)=O)C(OC(C)=O)CC2(C)C1CCC1(C)C2CC=C2C3C(C)C(C)CCC3(C(=O)O)CCC21C (centres unmarked) [compound 501] :: 654
C[C@H]1[C@H](C)CC[C@]2(C(=O)NCCCN(C)C)CC[C@]3(C)C(=CCC4[C@@]5(C)C[C@@H](O)[C@H](O)[C@@](C)(CO)C5CC[C@]43C)[C@H]12 (some centres unmarked) [compound 506] :: 852
CCCCOC(=O)C12CCC(C)C(C)C1C1=CCC3C4(C)CC(OC(C)=O)C(OC(C)=O)C(C)(COC(C)=O)C4CCC3(C)C1(C)CC2 (centres unmarked) [compound 502] :: 14.5

solubility at 24 h in this record for CC(=O)OC[C@@]1(C)C2CC[C@]3(C)C(CC=C4[C@@H]5[C@@H](C)[C@H](C)CC[C@]5(C(=O)NCCCN(C)C)CC[C@]43C)[C@@]2(C)C[C@@H](OC(C)=O)[C@@H]1OC(C)=O (some centres unmarked) [compound 503] : 331

* * *

Test: Cell viability, PrestoBlue resazurin assay
Format: cell-based, human
Conditions: human, hPDLSCs; 300 nM, day 5, general medium
endpoint-name: viability at 5 days, 0.3 µM

viability at 5 days, 0.3 µM in this record for CC(=O)OCC1(C)C(OC(C)=O)C(OC(C)=O)CC2(C)C1CCC1(C)C2CC=C2C3C(C)C(C)CCC3(C(=O)O)CCC21C (stereo not shown) [compound 501] : < 75%
